FYI, the data here is from ChEMBL document CHEMBL1147239.

System: Radical scavenging activity
Assay: Antioxidant activity assessed as DPPH radical scavenging activity after 30 mins
Format: functional
property-label: IC50 (µM)

INSERT INTO measurements (molecule, result_number) VALUES
  ('O=C(/C=C/c1ccccc1)O[C@@H]1[C@@H](O)[C@H](O)[C@@H](CO)O[C@H]1c1c(O)cc2oc3cc(O)c(O)cc3c(=O)c2c1O', 31.4);

P. O=C(/C=C/c1ccc(O)cc1)O[C@@H]1[C@@H](O)[C@H](O)[C@@H](CO)O[C@H]1c1c(O)cc2oc3cc(O)c(O)cc3c(=O)c2c1O
Q. C[C@@H]1O[C@@H](OC[C@H]2O[C@@H](Oc3c(-c4ccc(O)c(O)c4)oc4cc(O)cc(O)c4c3=O)[C@H](O)[C@@H](O)[C@@H]2O)[C@H](O)[C@H](O)[C@H]1O [RUTIN]
Lookup: Please indicate which item has the smaller measured IC50: P versus Q Please identify the chosen entry by its label.
Found: Q
